system: SK-MEL-5 melanoma; assay: NCI-60 one-dose screen, 48 h (100 = growth as untreated, 0 = no growth, -100 = all killed); conditions: 10 µM unless noted
Compounds without any hit were thinned out: in the full panel of roughly 83,000, 20% have a hit.
Hi! Could you tag entries with growth below 50% as Satisfied, and those at or above as Not satisfied? Much appreciated.

Cc1ccc(Cl)cc1NC(=O)N/C(N)=N/c1nc2ccccc2s1 :: Satisfied
CN(C)c1nc(NCCNS(=O)(=O)c2ccc(C(=O)/C=C/c3ccc(Cl)cc3)cc2)nc(N2CCOCC2)n1 :: Satisfied
COc1ccc(-c2cc(C)nc3[nH]c(=O)sc23)cc1 :: Not satisfied
COc1ccc(N=Nc2c(N)nn3c(-c4ccc(OC)c(OC)c4)ccnc23)cc1 :: Not satisfied
CN1CCN(CCS(=O)(=O)Nc2cc(-c3ccc4ncnc(Nc5ccc(F)c(Cl)c5)c4c3)cnc2Cl)CC1 :: Satisfied

q: Lab note: confirm whether the reported growth for this molecule is below 50%, equality not counting. molecule: COc1cc2cc(C(=O)N3C[C@@H](CCl)c4c3cc(OC(=O)N(CCC(=O)N3CCN(C)CC3)C3CCCCC3)c3ccccc43)[nH]c2c(OC)c1OC
a: Satisfied

q: Lab note: confirm whether the reported growth for this molecule is below 50%, equality not counting. molecule: CC1=C(C(=O)Nc2ccccc2)C(c2cccc(Cl)c2Cl)n2c(nc3ccccc32)N1 (centres undefined)
a: Satisfied

q: Lab note: confirm whether the reported growth for this molecule is below 50%, equality not counting. molecule: O=C(N/N=C/c1ccc(Cl)o1)c1[nH]c2ccc(Br)cc2c1-c1ccccc1
a: Satisfied

q: Lab note: confirm whether the reported growth for this molecule is below 50%, equality not counting. molecule: Cc1cccc(C)c1Nc1nnc(-c2c[nH]c3ccccc23)o1
a: Not satisfied

###

tested on: LOX IMVI melanoma; assay: NCI-60 one-dose screen, 48 h (100 = growth as untreated, 0 = no growth, -100 = all killed); conditions: 10 µM unless noted
About 83,000 compounds went through this panel and 20% of them were active in at least one assay; those are over-represented in the sample as a whole. Active and inactive are the calls of the source. Rule for the calls: active = growth percent below 10; inactive = the rest.
readout name: growth

Take a look at these entries with their results.
O=c1c(-c2nc(-c3ccccc3)c(-c3ccccc3)[nH]2)coc2ccc(F)cc12 :: 65.9% (inactive)
CCCn1c(NC(=O)c2cccc(C(N)=O)c2)nc2ccc(CN3CCCCC3)cc21 :: 93.4% (inactive)
COc1ccc2[nH]c(O)c(N=Nc3nc(-c4ccc(Cl)cc4)cs3)c2c1 :: -54.9% (active)
N#CCc1nnc(NC(=O)c2ccc(-n3c(=O)[nH]c4ccccc4c3=O)cc2)s1 :: 90.5% (inactive)
CN(C(=O)CN1C(=O)/C(=C/c2ccco2)SC1=S)C1CCS(=O)(=O)C1 (stereo not given) :: 91.6% (inactive)

q: Quick one: growth for c1n[nH]cc1-c1nc2ccc3cn[nH]c3c2c2c1CCCC2 ?
a: 69.9% (inactive)

q: Quick one: growth for COc1cccc(-c2ccc(/C=N/NC(=O)c3[nH]c4ccc(Br)cc4c3-c3ccccc3)s2)c1 ?
a: 4.04% (active)

q: Quick one: growth for CC1=C(C(=O)Nc2ccccc2)C(c2ccc3ccccc3c2)n2c(nc3ccccc32)N1 (stereo not given) ?
a: 9.5% (active)

q: Quick one: growth for Nc1nn2c(-c3cc4cc(Br)ccc4oc3=O)ccnc2c1N=Nc1ccc(S(N)(=O)=O)cc1 ?
a: 63.8% (inactive)

q: Quick one: growth for O=C(CSc1nc2ccccc2c(=O)[nH]1)NNC(=O)c1ccccc1Cl ?
a: 102% (inactive)
